Tested on: DIO1 (gene 1733)
procedureSummary: CCTE_GLTED_hDIO1: CCTE's human Deiodinase 1 (DIO1) Inhibition Assay, Great Lakes Toxicology and Ecology Division (GLTED) Lab (AID 2283987);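 also: isolated human DIO1 enzyme in a cell-free setup rather than cells; enzyme activity read as free iodide liberated from substrate via Sandell-Kolthoff colorimetry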
Records with an inconclusive call do not appear. Calls of active or inactive are those of the source. The calls were made as follows: active = hit-call score of the fitted dose curve at least 0.9, where 1 is the maximum; inconclusive = response in the unintended direction; inactive = score below 0.9.
experimentalReadout: AC50

>>> print(df.to_string())
                                   compound           reading
0  O=C1C2CC=CCC2C(=O)N1SC(Cl)(Cl)Cl (centres undefined)  53.8 µM (active)
1           CCCCOCN(C(=O)CCl)c1c(CC)cccc1CC  37.9 µM (active)
2             COP(=S)(OC)SCn1nnc2ccccc2c1=O  47.3 µM (active)
3  OC(c1ccc(Cl)cc1)(c1ccc(Cl)cc1)C(Cl)(Cl)Cl  70.4 µM (active)

---

procedureSummary: Tanguay_ZF_120hpf_CIRC_legacy: (Legacy) Oregon State University Tanguay Lab 120 Hour Post-fertilization zebrafish Assay for Circulatory Malformation (AID 2283651)
Inconclusive results are not listed. The source made the active and inactive calls. Rule for the calls: active = hit-call score of the fitted dose curve at least 0.9, where 1 is the maximum; inconclusive = response in the unintended direction; inactive = score below 0.9.
Outcomes: true (1) for active, false (0) for inactive

>>> df
                                    compound  classassignment
 0          CCOP(=O)(OCC)Oc1nc(Cl)c(Cl)cc1Cl        false (0)
 1        CN/C(=N\[N+](=O)[O-])NCc1cnc(Cl)s1        false (0)
 2  C=C(C)CN(CC)c1c([N+](=O)[O-])cc(C(F)(F)F)cc1[N+](=O)[O-]        false (0)
 3                                    CN=C=S        false (0)
 4                         N#Cc1c(Cl)cccc1Cl        false (0)
 5  CC1(C)C(C=C(Cl)Cl)C1C(=O)OC(C#N)c1cccc(Oc2ccccc2)c1 (stereo not given)        false (0)
 6  COCC(=O)N(c1c(C)cccc1C)C(C)C(=O)OC (stereo not given)        false (0)
 7    CC(C)Oc1cccc(NC(=O)c2ccccc2C(F)(F)F)c1        false (0)
 8  COCC(C)N(C(=O)CCl)c1c(C)csc1C (stereo not given)         true (1)
 9     O=C(Nc1ccccc1-c1ccc(Cl)cc1)c1cccnc1Cl        false (0)
10  Cc1cnc(C2=NC(C)(C(C)C)C(=O)N2)c(C(=O)O)c1 (stereo not given)        false (0)
11                   Clc1cccc(C(Cl)(Cl)Cl)n1        false (0)
12  CCCC(=NOCC)C1=C(O)CC(CC(C)SCC)CC1=O (stereo not given)        false (0)
13  CCC(C)n1c(=O)[nH]c(C)c(Br)c1=O (stereo not given)        false (0)
14  CC(C)(C)C(=O)C(Oc1ccc(Cl)cc1)n1cncn1 (stereo not given)        false (0)
15            Cc1nc(N(C)C)nc(OC(=O)N(C)C)c1C        false (0)
16  CCOC(=O)C(C)OC(=O)c1cc(Oc2ccc(C(F)(F)F)cc2Cl)ccc1[N+](=O)[O-] (stereo not given)        false (0)
17                   Cc1cc(C)nc(Nc2ccccc2)n1        false (0)
18                Nc1cnn(-c2ccccc2)c(=O)c1Cl        false (0)
19  CCCCC(C#N)(Cn1cncn1)c1ccc(Cl)cc1 (stereo not given)        false (0)
20  Cc1c(COC(=O)[C@@H]2[C@H](/C=C(\Cl)C(F)(F)F)C2(C)C)cccc1-c1ccccc1        false (0)
21  OC(c1ccc(Cl)cc1)(c1ccc(Cl)cc1)C(Cl)(Cl)Cl        false (0)
22  COCc1cnc(C2=NC(C)(C(C)C)C(=O)N2)c(C(=O)O)c1 (stereo not given)        false (0)
23            COP(=O)(OC)O/C(C)=C/C(=O)N(C)C        false (0)
24                CC1(C)CON(Cc2ccccc2Cl)C1=O        false (0)
